Give fractional viability for every item shown.
# System: TYKNU
# EXPERIMENT NOTES: fractional viability relative to vehicle; higher = less growth inhibition
# APPLIED CONDITIONS: 10uM; 72 h; genotype: DNM1L knockout (sgDNM1L #1)
The full ranking holds about 2,000 compounds; the median of “fractional viability relative to vehicle” is about 0.91, and the lowest 2% start at about 0.045. Many of the other results were omitted from the sample, so the lowest values are more common in it than they were.

Recorded fractional viability, per entry:
Task: Any idea what fractional viability was measured for CN(CC(=O)N(Cc1ccc(C2CCCCC2)cc1)c1ccc(C(=O)O)cc1)S(=O)(=O)c1c(F)c(F)c(F)c(F)c1F ?
Output: 0.042

Task: Bench note: what fractional viability did COCCOc1nc(-c2ccc(Cl)c(Cl)c2)n(-c2ccc(NC(=O)CCl)cc2)n1 [MI-2 (MALT1 inhibitor)] show?
Output: 0.792

Task: What fractional viability value was documented for this compound, Cc1nnc(C(C)C)n1C1C[C@H]2CC[C@@H](C1)N2CC[C@H](NC(=O)C1CCC(F)(F)CC1)c1ccccc1 (stereo in doubt) [Maraviroc] ?
Output: 0.873

# input for lookup
Task: // fractional viability lookup, key: C=C1C(=O)O[C@H]2[C@H]1CC/C(C)=C/CC[C@@]1(C)O[C@@H]21 [(-)-Parthenolide]
Output: 0.0299

====

# Test system: TYKNU
# EXPERIMENT NOTES: fractional viability relative to vehicle; higher = less growth inhibition
# APPLIED CONDITIONS: 2uM; 72 h; genotype: sgCTRLA1 (non-targeting control)
In all, about 2,000 compounds were measured (“fractional viability relative to vehicle”: median about 0.91, lowest 2% from about 0.045 on). The list comes from a sample in which the lowest values are over-represented; it also holds close analogues and randomly drawn compounds.
Hi there, I'd appreciate the recorded fractional viability for every entry that follows.
One number for each entry.

Task: So what does the record say about fractional viability for C=CC(=O)Nc1cccc(Nc2nc(Nc3ccc(NC4CN(CCF)C4)cc3OC)ncc2C(F)(F)F)c1 ?
Output: 0.752

Task: Query: fractional viability; subject: COc1ccc(C[C@H](NC(=O)[C@H](C)NC(=O)CN2CCOCC2)C(=O)N[C@@H](Cc2ccccc2)C(=O)[C@@]2(C)CO2)cc1
Output: 0.0514

Task: What value of measured fractional viability is listed for C=CC(=O)Nc1cccc(Nc2nc(Nc3ccc(N4CCN(C(C)=O)CC4)cc3OC)ncc2C(F)(F)F)c1 ?
Output: 0.856

Task: For the compound Nc1nc(Nc2ccc3c(c2)CCC(N2CCCC2)CC3)nn1-c1cc2c(nn1)-c1ccccc1CCC2 (stereo unspecified) , what fractional viability is on record?
Output: 0.242

Task: Reported fractional viability, compound CC(C)C[C@H](NC(=O)[C@H](CCc1ccccc1)NC(=O)CN1CCOCC1)C(=O)N[C@@H](Cc1ccccc1)C(=O)N[C@@H](CC(C)C)C(=O)[C@@]1(C)CO1 : ____
Output: 0.0587

Task: Reported fractional viability for CN(CC(=O)N(Cc1ccc(C2CCCCC2)cc1)c1ccc(C(=O)O)cc1)S(=O)(=O)c1c(F)c(F)c(F)c(F)c1F : what is it?
Output: 0.661

# per-item lookup of fractional viability; items listed below
1. C=CC(=O)Nc1cc(Nc2nccc(-c3cn(C)c4ccccc34)n2)c(OC)cc1N(C)CCN(C)C
2. C=CC(=O)Nc1cc(Nc2nccc(-c3c[nH]c4ccccc34)n2)c(OC)cc1N(C)CCN(C)C
3. C=CC(=O)Nc1cccc(Oc2nc(Nc3ccc(N4CCN(C)CC4)cc3)ncc2Cl)c1
4. C=CC(=O)Nc1cccc(Sc2nc(Nc3ccc(N4CCN(C)CC4)cc3)ncc2Cl)c1
5. C=CC(=O)Nc1cccc(Oc2nc(Nc3ccc(N4CCN(C)CC4)cc3OC)ncc2Cl)c1
6. COC[C@H](NC(=O)c1cnc(C)s1)C(=O)N[C@@H](COC)C(=O)N[C@@H](Cc1ccccc1)C(=O)[C@@]1(C)CO1

Output:
[0.895, 0.409, 0.355, 0.898, 0.963, 0.0656]

Each compound below has a reported value. Please supply its fractional viability.
1. OC(CNCC(O)C1CCc2cc(F)ccc2O1)C1CCc2cc(F)ccc2O1 (stereo unspecified)
2. CN(C)CC[C@H](CSc1ccccc1)Nc1ccc(S(=O)(=O)NC(=O)c2ccc(N3CCN(Cc4ccccc4-c4ccc(Cl)cc4)CC3)cc2)cc1[N+](=O)[O-]
3. CC(NC(=O)C(Cc1ccccc1)NC(=O)OCc1ccccc1)C(=O)CF (stereo unspecified)
4. CCN(CC)CCNC(=O)c1c(C)[nH]c(/C=C2\C(=O)Nc3ccc(F)cc32)c1C [Sunitinib Malate]

Output:
[0.981, 0.97, 0.869, 0.819]

====

# Tested on: TYKNU
# EXPERIMENT NOTES: fractional viability relative to vehicle; higher = less growth inhibition
# APPLIED CONDITIONS: 2uM; 72 h; genotype: sgCTRLA1 (non-targeting control)
Where a name gives a salt, the structure may show the parent alone. In all, about 2,000 compounds were measured (“fractional viability relative to vehicle”: median about 0.91, lowest 2% from about 0.045 on). For the sample, the lowest values were picked, then their nearest neighbours and some compounds at random.
MEASUREMENT TYPE: fractional viability
Give bare numbers.

For orientation, consider the following solved cases.
Task: Any idea what fractional viability was measured for CCCCc1nc2cc(/C=C/C(=O)NO)ccc2n1CCN(CC)CC [Pracinostat (SB939)] ?
Output: 0.22

Task: Endpoint output: fractional viability of COc1ccc(-n2c(SCCCN3C(=O)c4cccc5cccc(c45)C3=O)nnc2-c2ccncc2)cc1 . Value?
Output: 0.945

Task: Given CC(C)(C)C#Cc1cc(N(C(=O)[C@H]2CC[C@H](C)CC2)[C@H]2CC[C@H](O)CC2)c(C(=O)O)s1 , state its recorded fractional viability.
Output: 1.03

Would you mind listing fractional viability for each of the following molecules?
1. Cn1sc(=O)n(Cc2ccccc2)c1=O
2. CCCCCCCCc1ccc(CCC(N)(CO)CO)cc1 [Fingolimod (FTY720) HCl]
3. CCN(CC)CCCC(C)Nc1nc(C)cc(Nc2ccc3nc(C)cc(N)c3c2)n1 (centres undefined)
4. CCN(CC)CCCC(C)Nc1c2ccc(Cl)cc2nc2ccc(OC)cc12 (centres undefined) [Quinacrine 2HCl]

Output:
[0.735, 1.02, 0.862, 0.536]

Each of the following entries comes with a recorded value; kindly state fractional viability for each.
1. CCCCCCCCCCCCc1ccc(S(=O)(=O)Nc2nncs2)cc1
2. Cc1nc(Nc2cnn(C3CCNCC3)c2)nc2c1N(C)C(=O)c1cc3ccccc3cc1N2C

Output:
[1.07, 0.802]

====

# Tested on: TYKNU
# EXPERIMENT NOTES: fractional viability relative to vehicle; higher = less growth inhibition
# APPLIED CONDITIONS: 2uM; 72 h; genotype: DNM1L knockout (sgDNM1L #1)
The full ranking holds about 2,000 compounds; the median of “fractional viability relative to vehicle” is about 0.91, and the lowest 2% start at about 0.045. Shown is part of a subset that was picked to be rich in the lowest values.
Answer each item with its documented fractional viability.

Example molecules with recorded fractional viability:
Task: Quick one: fractional viability of CN(C)C(=S)NN=C(c1ccccn1)c1ccccn1 ?
Output: 0.177

Task: Query: fractional viability; subject: CN(C)C/C=C/C(=O)Nc1cc2c(Nc3ccc(F)c(Cl)c3)ncnc2cc1O[C@H]1CCOC1 [Afatinib (BIBW2992) Dimaleate]
Output: 0.77

Task: Item O=C(Nc1cccc(Cl)c1)c1ccccn1 has what recorded fractional viability?
Output: 1.06

Task: # get_value(readout='fractional viability', item= CN1CCN(c2ccc3nc(-c4c(N)c5c(F)cccc5[nH]c4=O)[nH]c3c2)CC1 [Dovitinib (TKI258) Lactate] )
Output: 0.398

As a next step, examine the molecule that follows.
Task: Please report the recorded fractional viability for O=C(NNc1nc2cc(F)ccc2n2cccc12)c1cnccn1 .
Output: 0.358

====

# Tested on: TYKNU
# EXPERIMENT NOTES: fractional viability relative to vehicle; TYKNU is a high-grade serous ovarian cancer line; higher = less growth inhibition
# APPLIED CONDITIONS: 10uM; 72 h; genotype: DNM1L knockout (sgDNM1L #1)
Whole data set: some 2,000 compounds, median “fractional viability relative to vehicle” near 0.91, cut for the lowest 2% near 0.045. Shown is part of a subset that was picked to be rich in the lowest values.
MEASUREMENT TYPE: fractional viability
Give bare numbers.

Quick batch: fractional viability for everything below.
1. Cc1ccc(NC(=O)c2cccc(C(C)(C)C#N)c2)cc1Nc1ccc2ncn(C)c(=O)c2c1
2. C[C@H]1O[C@@H](O[C@H]2[C@@H](O)C[C@H](O[C@H]3[C@@H](O)C[C@H](O[C@H]4CC[C@@]5(C)[C@H](CC[C@@H]6[C@@H]5C[C@@H](O)[C@]5(C)[C@@H](C7=CC(=O)OC7)CC[C@]65O)C4)O[C@@H]3C)O[C@@H]2C)C[C@H](O)[C@@H]1O
3. CCS(=O)(=O)N1CCC([C@@H](C)n2c(C)c(C(=O)NCc3c(OC)cc(C)[nH]c3=O)c3ccccc32)CC1
4. CN1CCN(c2c(F)cc3c(=O)c(C(=O)O)cn4c3c2OCN4C)CC1
5. Cc1cc(C)c(S(=O)(=O)n2cc(C)cc2C)c(C)c1

Output:
[0.27, 0.032, 0.908, 0.971, 0.757]

Working through the 2 molecules below one at a time, give fractional viability for each.
1. COc1ccc(-n2c(SCCCN3C(=O)c4cccc5cccc(c45)C3=O)nnc2-c2ccncc2)cc1
2. O=C(Nc1ccc(OC(F)(F)F)cc1)c1sccc1NCc1ccnc2ccccc12

Output:
0.895
0.215
